# System: Gag-Pol polyprotein (Human immunodeficiency virus type 1 group M subtype B (isolate HXB2), UniProt P04585)
# Assay Notes: HIV-1 RT Colorimetric Assay
Value Kind: IC50 (µM)

Observe how each entry below is paired with its result.
1. COc1ccc2c(c1)CCCN2CCC(=O)N1CCN(c2ccccc2)CC1; 24.3
2. COc1ccc2c(c1)CCCN2CCC(=O)N1CCN(c2ccc(C)cc2)CC1; 28.5
3. COc1ccc2c(c1)CCCN2CCC(=O)N1CCN(c2cccc(Cl)c2)CC1; 18.6
4. COc1ccc2c(c1)CCCN2CCC(=O)N1CCN(c2ccccc2Cl)CC1; 32.9
5. COc1ccc2c(c1)CCCN2CCC(=O)N1CCN(c2ccc(Cl)cc2)CC1; 24.9

[I] COc1ccc2c(c1)CCCN2CCC(=O)N1CCN(c2ccccn2)CC1
[II] COc1ccc2c(c1)CCCN2CCC(=O)N1CCN(c2ccc(F)cc2)CC1
[III] COc1ccc2c(c1)CCCN2CCC(=O)N1CCN(c2cccc(Cl)c2Cl)CC1
Query: Write the entries in order, lowest recorded IC50 first. I'd appreciate it if you listed the labels in the requested order.
Response: III, I, II

[a] COc1ccc2c(c1)CCCN2CCC(=O)N1CCN(c2ccccc2OC)CC1
[b] COc1ccc2c(c1)CCCN2CCC(=O)N1CCN(c2ccc([N+](=O)[O-])cc2)CC1
Query: I'd appreciate it if you could identify which of a and b has the greater IC50. # reply format: chosen label
Response: b

[A] COc1ccc2c(c1)CCCN2CCC(=O)N1CCN(c2ccccc2F)CC1
[B] COc1ccc2c(c1)CCCN2CCC(=O)N1CCN(c2ccccc2C)CC1
Query: Kindly compare A with B and tell me which has the lower IC50 figure. # reply format: chosen label
Response: B
(B: 12.5 µM, A: 47.5 µM)

---

# System: Gag-Pol polyprotein (Human immunodeficiency virus type 1 group M subtype B (isolate HXB2), UniProt P04585)
# Assay Notes: HIV-1 RT Colorimetric Assay
Value Kind: IC50

Observe how each entry below is paired with its result.
1. COc1ccc(N2CCN(C(=O)CCN3CCCc4cc(OC)ccc43)CC2)cc1; > 100 µM
2. COc1ccc2c(c1)CCCN2CCC(=O)N1CCN(Cc2ccccc2)CC1; > 100 µM

Query: Specify measured IC50 for `COc1cccc(N2CCN(C(=O)CCN3CCCc4cc(OC)ccc43)CC2)c1` .
Response: 58.2 µM
